These measurements were taken from patent US20220298235A1.

# SYSTEM_TESTED: T1, human IL-23 (IL-23-His-Biotin) (human, UniProt Q9NPF7 20-189; P29460 23-328, biotin label, site not stated)
# T1 construct: Akesobio lot 20161209; His-tagged and biotinylated
# T1 sequence (looked up) 1: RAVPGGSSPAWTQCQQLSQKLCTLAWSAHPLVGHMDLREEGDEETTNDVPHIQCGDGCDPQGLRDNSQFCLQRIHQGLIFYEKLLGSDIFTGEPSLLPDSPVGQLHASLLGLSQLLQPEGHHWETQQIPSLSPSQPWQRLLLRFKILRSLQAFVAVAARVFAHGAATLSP
# T1 sequence (looked up) 2: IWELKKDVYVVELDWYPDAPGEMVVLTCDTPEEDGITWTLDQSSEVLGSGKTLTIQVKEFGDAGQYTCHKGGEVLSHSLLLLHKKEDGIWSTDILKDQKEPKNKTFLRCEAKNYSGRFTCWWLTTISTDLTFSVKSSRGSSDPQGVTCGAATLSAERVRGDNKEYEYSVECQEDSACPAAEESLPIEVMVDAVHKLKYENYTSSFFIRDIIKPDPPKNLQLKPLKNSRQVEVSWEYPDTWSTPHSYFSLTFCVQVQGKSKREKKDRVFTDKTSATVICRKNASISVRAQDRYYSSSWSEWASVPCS
# METHOD_NOTES: FACS competition, IL-23-His-Biotin 2 µg/mL on 293T-IL-12Rβ1&IL-23R cells; antibody 10 µg/mL
ENDPOINT: MFI (MFI)

[[record]]
binder = "H5L11 (antibody, human IgG1, kappa, V domains shown, human IgG1 / kappa constant regions; also called humanized antibody H5L11) VH: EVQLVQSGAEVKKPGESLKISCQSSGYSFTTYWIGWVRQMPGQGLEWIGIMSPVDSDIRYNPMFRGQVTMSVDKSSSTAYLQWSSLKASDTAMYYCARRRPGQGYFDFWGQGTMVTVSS VL: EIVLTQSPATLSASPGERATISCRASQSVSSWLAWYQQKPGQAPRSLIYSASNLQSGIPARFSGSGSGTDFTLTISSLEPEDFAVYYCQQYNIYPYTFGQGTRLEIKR"
endpoint = "MFI"
unit_descriptor = "MFI"
observed_measurement = 14.5

[[record]]
binder = "H5L9 (antibody, human IgG1, kappa, V domains shown, human IgG1 (P01857) / kappa (P01834) constant regions; also called humanized antibody H5L9) VH: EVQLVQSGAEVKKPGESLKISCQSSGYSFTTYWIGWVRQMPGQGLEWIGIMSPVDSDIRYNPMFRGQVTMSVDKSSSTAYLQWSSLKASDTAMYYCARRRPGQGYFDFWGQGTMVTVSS VL: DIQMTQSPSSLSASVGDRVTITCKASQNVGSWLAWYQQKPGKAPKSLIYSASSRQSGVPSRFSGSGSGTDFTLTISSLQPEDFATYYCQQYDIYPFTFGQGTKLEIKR"
endpoint = "MFI"
unit_descriptor = "MFI"
observed_measurement = 136

[[record]]
binder = "H5L10 (antibody, human IgG1, kappa, V domains shown, human IgG1 / kappa constant regions; also called humanized antibody H5L10) VH: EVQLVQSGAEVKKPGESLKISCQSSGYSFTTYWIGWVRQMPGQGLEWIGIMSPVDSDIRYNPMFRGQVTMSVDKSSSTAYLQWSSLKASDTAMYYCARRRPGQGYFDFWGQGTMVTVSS VL: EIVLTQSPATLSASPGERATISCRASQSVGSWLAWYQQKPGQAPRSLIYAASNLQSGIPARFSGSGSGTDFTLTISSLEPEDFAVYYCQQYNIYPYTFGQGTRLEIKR"
endpoint = "MFI"
unit_descriptor = "MFI"
observed_measurement = 12.7

